Provenance of the data: patent US9167821B2

# Test system: Phytophthora infestans
# method: whole plant or invertebrate
# Assay type: in vivo
# experimental_conditions: Phytophthora infestans, in Solanum lycopersicum, 72 h, read-out: efficacy
observable: pest or weed control at 10 ppm (%)
Hi! Could you send only the number? It should be in %, unit omitted.

Reported Phytophthora infestans pest or weed control at 10 ppm for item O=C(Cn1nc(C(F)F)cc1C(F)F)N1CCC(F)(c2nc(C3=NOC(c4ccccc4)C3)cs2)CC1 (stereo not drawn) was 93

Reported Phytophthora infestans pest or weed control at 10 ppm for item CC(C)=CCOc1ccccc1C1CC(c2csc(C3CCN(C(=O)Cn4nc(C(F)F)cc4C(F)F)CC3)n2)=NO1 (stereo not drawn) was 95

Reported Phytophthora infestans pest or weed control at 10 ppm for item C=CCOc1ccccc1C1CC(c2csc(C3CCN(C(=O)Cn4nc(C(F)F)cc4C(F)F)CC3)n2)=NO1 (stereo not drawn) was 98

Reported Phytophthora infestans pest or weed control at 10 ppm for item COCCOc1ccccc1C1CC(c2csc(C3CCN(C(=O)Cn4nc(C(F)F)cc4C(F)F)CC3)n2)=NO1 (stereo not drawn) was 96

Reported Phytophthora infestans pest or weed control at 10 ppm for item O=C(Cn1nc(C(F)F)cc1C(F)F)N1CCC(c2nc(C3=NOC(c4ccccc4[N+](=O)[O-])C3)cs2)CC1 (stereo not drawn) was 97

Reported Phytophthora infestans pest or weed control at 10 ppm for item Nc1ccccc1C1CC(c2csc(C3CCN(C(=O)Cn4nc(C(F)F)cc4C(F)F)CC3)n2)=NO1 (stereo not drawn) was 94

Reported Phytophthora infestans pest or weed control at 10 ppm for item CC(=O)c1ccccc1C1CC(c2csc(C3CCN(C(=O)Cn4nc(C(F)F)cc4C(F)F)CC3)n2)=NO1 (stereo not drawn) was 97

Reported Phytophthora infestans pest or weed control at 10 ppm for item O=C(Cn1nc(C(F)F)cc1C(F)F)N1CCC(c2nc(C3=NOC(c4ccccc4O)C3)cs2)CC1 (stereo not drawn) was 96

Reported Phytophthora infestans pest or weed control at 10 ppm for item O=Cc1ccccc1C1CC(c2csc(C3CCN(C(=O)Cn4nc(C(F)F)cc4C(F)F)CC3)n2)=NO1 (stereo not drawn) was 97

* * *

# experimental_conditions: pH 2.7
observable: logp [b]

Sure, the documented logp [b] for CCCCOCc1ccccc1C1CC(c2csc(C3CCN(C(=O)Cn4nc(C(F)F)cc4C(F)F)CC3)n2)=NO1 (racemic) is 4.24^[b]

Sure, the documented logp [b] for CS(=O)(=O)Nc1ccc(C2CC(c3csc(C4CCN(C(=O)Cn5nc(C(F)F)cc5C(F)F)CC4)n3)=NO2)cc1 (racemic) is 2.41^[b]

Sure, the documented logp [b] for CC(=O)c1cccc(C2CC(c3csc(C4CCN(C(=O)Cn5nc(C(F)F)cc5C(F)F)CC4)n3)=NO2)c1 (racemic) is 2.78^[b]

Sure, the documented logp [b] for O=C(Cn1nc(C(F)F)cc1C(F)F)N1CCC(F)(c2nc(C3=NOC(c4ccccc4F)C3)cs2)CC1 (racemic) is 3.49^[b]

Sure, the documented logp [b] for O=C(Cn1nc(C(F)F)cc1C(F)F)N1CCC(c2nc(C3=NOC(c4ccccc4COCC(F)(F)F)C3)cs2)CC1 (racemic) is 3.4^[b]

Sure, the documented logp [b] for CCS(=O)(=O)Cc1ccccc1C1CC(c2csc(C3CCN(C(=O)Cn4nc(C(F)F)cc4C(F)F)CC3)n2)=NO1 (racemic) is 2.76^[b]

Sure, the documented logp [b] for CCC#CCOc1ccccc1C1CC(c2csc(C3CCN(C(=O)Cn4nc(C(F)F)cc4C(F)F)CC3)n2)=NO1 (racemic) is 3.91^[b]

Sure, the documented logp [b] for O=C(Cn1nc(C(F)F)cc1C(F)F)N1CCC(c2nc(C3=NOC(c4ccccc4)C3)cs2)CC1 (racemic) is 3.17^[b];

Sure, the documented logp [b] for O=C(Cn1nc(C(F)F)cc1C(F)F)N1CCC(F)(c2nc(C3=NOC(c4c(F)cccc4F)C3)cs2)CC1 (racemic) is 3.43^[b];

Sure, the documented logp [b] for O=Cc1cccc(C2CC(c3csc(C4CCN(C(=O)Cn5nc(C(F)F)cc5C(F)F)CC4)n3)=NO2)c1 (racemic) is 2.78^[b]

Sure, the documented logp [b] for O=C(Cn1nc(C(F)F)cc1C(F)F)N1CCC(c2nc(C3=NOC(c4c(F)cccc4F)C3)cs2)CC1 (racemic) is 3.14^[b]

Sure, the documented logp [b] for O=C(Cn1nc(C(F)F)cc1C(F)F)N1CCC(c2nc(-c3cc(-c4ccccc4)on3)cs2)CC1 is 3.66^[b]

* * *

# method: physchem
# experimental_conditions: pH 2.7, logp [b]
observable: chromatographic logP

Sure, the documented chromatographic logP for COCCOc1cccc(C2CC(c3csc(C4CCN(C(=O)Cn5nc(C(F)F)cc5C(F)F)CC4)n3)=NO2)c1 (stereo not shown) is 3.03

Sure, the documented chromatographic logP for COCCOc1ccccc1C1CC(c2csc(C3CCN(C(=O)Cn4nc(C(F)F)cc4C(F)F)CC3)n2)=NO1 (stereo not shown) is 3.26

Sure, the documented chromatographic logP for O=Cc1ccccc1C1CC(c2csc(C3CCN(C(=O)Cn4nc(C(F)F)cc4C(F)F)CC3)n2)=NO1 (stereo not shown) is 2.98

Sure, the documented chromatographic logP for O=C(OCC1CC1)c1ccccc1C1CC(c2csc(C3CCN(C(=O)Cn4nc(C(F)F)cc4C(F)F)CC3)n2)=NO1 (stereo not shown) is 3.99

* * *

# method: physchem
# experimental_conditions: pH 2.7, log P (HCOOH)
Counter-ions that a name gives are not always drawn.
observable: chromatographic logP
A bare number is all that is needed in reply.

Sure, the documented chromatographic logP for CC(=O)c1ccccc1C1CC(c2csc(C3CCNCC3)n2)=NO1 (centres unmarked) [XII-2, hydrochloride] is 0.96

Sure, the documented chromatographic logP for CC(C)(C)OC(=O)N1CCC(F)(c2nc(C=O)cs2)CC1 [VI-1] is 2.8

Sure, the documented chromatographic logP for O=C(Cn1nc(C(F)F)cc1C(F)F)N1CCC(F)(c2nc(C3=NOC(c4ccccc4)C3)cs2)CC1 (centres unmarked) [I-5] is 3.41

Sure, the documented chromatographic logP for CS(=O)(=O)Nc1ccccc1C1CC(c2csc(C3CCNCC3)n2)=NO1 (centres unmarked) [XII-4] is 0.72

Sure, the documented chromatographic logP for O=Cc1ccccc1C1CC(c2csc(C3CCNCC3)n2)=NO1 (centres unmarked) [XII-3, hydrochloride] is 0.76

Sure, the documented chromatographic logP for O=Cc1csc(C2CCN(C(=O)Cn3nc(C(F)F)cc3C(F)F)CC2)n1 [VI-2] is 1.93

Sure, the documented chromatographic logP for CC(C)(C)OC(=O)N1CCC(c2nc(-c3cc(-c4ccccc4C=O)on3)cs2)CC1 [X-b-1] is 4.1

Sure, the documented chromatographic logP for O=C(Cn1nc(C(F)F)cc1C(F)F)N1CCC(c2nc(C3=NOC(c4c(O)cccc4Cl)C3)cs2)CC1 (centres unmarked) [I-54] is 2.94

Sure, the documented chromatographic logP for FC1(c2nc(C3=NOC(c4ccccc4)C3)cs2)CCNCC1 (centres unmarked) [XII-1] is 1.17

Sure, the documented chromatographic logP for O=C(O)c1ccccc1C1CC(c2csc(C3CCN(C(=O)Cn4nc(C(F)F)cc4C(F)F)CC3)n2)=NO1 (centres unmarked) is 2.63

Sure, the documented chromatographic logP for CC(C)(C)OC(=O)N1CCC(F)(c2nc(C3=NOC(c4ccccc4)C3)cs2)CC1 (centres unmarked) [X-a-1] is 4.28

Sure, the documented chromatographic logP for CC(C)(C)OC(=O)N1CCC(c2nc(C3=NOC(c4ccccc4C(=O)O)C3)cs2)CC1 (centres unmarked) [X-a-9] is 3.18

Sure, the documented chromatographic logP for CC(C)(C)OC(=O)N1CCC(c2nc(C3=NOC(c4ccccc4C=O)C3)cs2)CC1 (centres unmarked) [X-a-3] is 3.76

Sure, the documented chromatographic logP for COC(=O)c1ccccc1C1CC(c2csc(C3CCN(C(=O)OC(C)(C)C)CC3)n2)=NO1 (centres unmarked) [X-a-8] is 4.14

Sure, the documented chromatographic logP for CC(C)(C)OC(=O)N1CCC(c2nc(C3=NOC(c4ccccc4NS(C)(=O)=O)C3)cs2)CC1 (centres unmarked) [X-a-4] is 3

Sure, the documented chromatographic logP for O=C(Cn1nc(C(F)F)cc1C(F)F)N1CCC(c2nc(C=NO)cs2)CC1 is 1.93

Sure, the documented chromatographic logP for CC(C)(C)OC(=O)N1CCC(c2nc(C3=NOC(c4c(F)cccc4C=O)C3)cs2)CC1 (centres unmarked) [X-a-13] is 3.62

* * *

# Test system: Plasmopara viticola
# method: Plasmopara test (grapevine)/protective
# Type: in vivo
# experimental_conditions: Plasmopara viticola, 144 h; grapevine plants, protective spray, 10 ppm active ingredient, evaluation 6 days after inoculation; 0% = control, 100% = no infection; read-out: efficacy
For each entry below, report its pest or weed control at 10 ppm value.
Give the number first and the unit second.

Sure, the documented pest or weed control at 10 ppm for CC(=O)c1ccccc1C1CC(c2csc(C3CCN(C(=O)Cn4nc(C(F)F)cc4C(F)F)CC3)n2)=NO1 (stereo not drawn) is 100%

Sure, the documented pest or weed control at 10 ppm for O=C(Cn1nc(C(F)F)cc1C(F)F)N1CCC(c2nc(C3=NOC(c4ccccc4[N+](=O)[O-])C3)cs2)CC1 (stereo not drawn) is 100%

Sure, the documented pest or weed control at 10 ppm for C=CCOc1ccccc1C1CC(c2csc(C3CCN(C(=O)Cn4nc(C(F)F)cc4C(F)F)CC3)n2)=NO1 (stereo not drawn) is 100%

Sure, the documented pest or weed control at 10 ppm for O=Cc1ccccc1C1CC(c2csc(C3CCN(C(=O)Cn4nc(C(F)F)cc4C(F)F)CC3)n2)=NO1 (stereo not drawn) is 100%

Sure, the documented pest or weed control at 10 ppm for COCCOc1ccccc1C1CC(c2csc(C3CCN(C(=O)Cn4nc(C(F)F)cc4C(F)F)CC3)n2)=NO1 (stereo not drawn) is 96%

Sure, the documented pest or weed control at 10 ppm for O=C(Cn1nc(C(F)F)cc1C(F)F)N1CCC(F)(c2nc(C3=NOC(c4ccccc4)C3)cs2)CC1 (stereo not drawn) is 97%

Sure, the documented pest or weed control at 10 ppm for O=C(Cn1nc(C(F)F)cc1C(F)F)N1CCC(c2nc(C3=NOC(c4ccccc4O)C3)cs2)CC1 (stereo not drawn) is 99%

Sure, the documented pest or weed control at 10 ppm for CC(C)=CCOc1ccccc1C1CC(c2csc(C3CCN(C(=O)Cn4nc(C(F)F)cc4C(F)F)CC3)n2)=NO1 (stereo not drawn) is 98%

Sure, the documented pest or weed control at 10 ppm for Nc1ccccc1C1CC(c2csc(C3CCN(C(=O)Cn4nc(C(F)F)cc4C(F)F)CC3)n2)=NO1 (stereo not drawn) is 100%
